Source: the Immune Epitope Database (IEDB)

# target.desc: HLA-A*68:02
# test.method.notes: IEDB peptide-MHC binding, purified MHC/competitive/radioactivity; bounds were set here for any values at or beyond the usual limits of such assays
# experimental.context: source organism: Vaccinia virus WR
Define the label as label 1 when IC50 is strictly less than 1 µM and as label 0 in all remaining cases.

The following sequences have reported results that may help.
Say whether its IC50 is strictly beneath 1 µM. Entry: KVYNGIFVDT
label 0

Say whether its IC50 is strictly beneath 1 µM. Entry: NLYKVYNGI
label 0

Say whether its IC50 is strictly beneath 1 µM. Entry: SARALKAYFT
label 0

Further cases:
Say whether its IC50 is strictly beneath 1 µM. Entry: PISDYSAEV
label 0

Say whether its IC50 is strictly beneath 1 µM. Entry: NILMDSIFV
label 1

* * *

# target.desc: HLA-A*02:01
# test.method.notes: IEDB peptide-MHC binding, purified MHC/competitive/radioactivity; bounds were set here for any values at or beyond the usual limits of such assays
# experimental.context: source organism: Vaccinia virus WR
parameter: IC50
The answer should read as a number with its unit following.

Lab note: sequence NVVSSSTIA tested on HLA-A*02:01; recorded IC50 was 588 nM

* * *

# target.desc: HLA-A*02:01
# test.method.notes: IEDB peptide-MHC binding, purified MHC/competitive/radioactivity; bounds were set here for any values at or beyond the usual limits of such assays
# experimental.context: source organism: Mammarenavirus brazilense
Recorded measurements of IC50, one per entry
The answer should read as a number with its unit following.

These recorded examples may help you get a feel for the data.
Reported IC50 ( ALIAVSLIA ) = 1100 nM

Reported IC50 ( GLFQLIFFLT ) = 1230 nM

Further cases:
Reported IC50 ( EAINIALIAV ) = 1480 nM

* * *

# target.desc: HLA-A*02:06
# test.method.notes: IEDB peptide-MHC binding, purified MHC/competitive/radioactivity; bounds were set here for any values at or beyond the usual limits of such assays
# experimental.context: source organism: Vaccinia virus WR
parameter: IC50 (nM)
Express the result in nM but write the number alone.

Reported IC50 ( ILFQNNDINA ) = 3180

Further cases:
Reported IC50 ( ILEYLYIMRV ) = 134

Reported IC50 ( YTISSESLV ) = 54

Reported IC50 ( ITLILSNKL ) = 396

* * *

# target.desc: HLA-A*02:01
# test.method.notes: IEDB peptide-MHC binding, purified MHC/competitive/radioactivity; bounds were set here for any values at or beyond the usual limits of such assays
# experimental.context: source organism: Hepacivirus hominis
parameter: log10 IC50 (log10 of the value in µM)
The figures below represent log10 of IC50, where IC50 is stated in µM.

These recorded examples may help you get a feel for the data.
Lab note: sequence CLWWTCYMLV tested on HLA-A*02:01; recorded log10 IC50 was -0.57

Lab note: sequence RLLLLGLLLL tested on HLA-A*02:01; recorded log10 IC50 was -0.30

Lab note: sequence VMWKCLIRL tested on HLA-A*02:01; recorded log10 IC50 was -1.28

Lab note: sequence YLVTRNADV tested on HLA-A*02:01; recorded log10 IC50 was -0.53

Lab note: sequence VLIVMLLFA tested on HLA-A*02:01; recorded log10 IC50 was 0.37

Further cases:
Lab note: sequence LLAPITAYA tested on HLA-A*02:01; recorded log10 IC50 was -2.54

Lab note: sequence HLFTSMFSL tested on HLA-A*02:01; recorded log10 IC50 was -1.31

Lab note: sequence VLWTVFHGA tested on HLA-A*02:01; recorded log10 IC50 was -1.00

Lab note: sequence MLCLLLLSV tested on HLA-A*02:01; recorded log10 IC50 was -0.85

* * *

# target.desc: HLA-A*02:06
# test.method.notes: IEDB peptide-MHC binding, purified MHC/competitive/radioactivity; bounds were set here for any values at or beyond the usual limits of such assays
# experimental.context: source organism: SARS-CoV1
parameter: pIC50
To interpret pIC50, take it as minus log10 of a concentration measured in moles per litre.

Reported pIC50 ( FTLLFQLCT ) = 6.85

Reported pIC50 ( LLVAAGMEA ) = 6.93

Reported pIC50 ( GLSDRVVFV ) = 7.16

Reported pIC50 ( MLSVVGFLV ) = 6.94

Further cases:
Reported pIC50 ( VIADYNYKL ) = 7.16

Reported pIC50 ( GTSAAAYFV ) = 7.04

Reported pIC50 ( QLMCQPILL ) = 7.11

Reported pIC50 ( AIAACAMLLV ) = 7.11

Reported pIC50 ( TLLCVLAALV ) = 7.19

Reported pIC50 ( VMFNGVTFST ) = 6.88

* * *

# target.desc: HLA-A*02:03
# test.method.notes: IEDB peptide-MHC binding, cellular MHC/competitive/fluorescence; bounds were set here for any values at or beyond the usual limits of such assays
# experimental.context: source organism: Vaccinia virus WR
Recorded measurements of pIC50, one per entry
To interpret pIC50, take it as minus log10 of a concentration measured in moles per litre.

These recorded examples may help you get a feel for the data.
Reported pIC50 ( AATKRYPGVM ) = 4.32

Reported pIC50 ( YVKNGTKGKL ) = 5.14

Reported pIC50 ( NLEELTTVFI ) = 5.19

Reported pIC50 ( CVKYLLDNDI ) = 5.25

Further cases:
Reported pIC50 ( PMIIGEPIIV ) = 5.05

Reported pIC50 ( DVNSVQFSI ) = 4.79

Reported pIC50 ( IAIFNNRNL ) = 4.98

Reported pIC50 ( CTSEIQNVT ) = 5.29

Reported pIC50 ( LQQNNSFII ) = 5.29

Reported pIC50 ( LTHFNNNENV ) = 5.14

Reported pIC50 ( LTSNCTRTT ) = 4.53

Reported pIC50 ( TVDFTDCRT ) = 4.57

Reported pIC50 ( NACDKHNKT ) = 5.03

Reported pIC50 ( DLDKVYEIL ) = 4.58

* * *

# target.desc: HLA-A*02:01
# test.method.notes: IEDB peptide-MHC binding, purified MHC/competitive/radioactivity; bounds were set here for any values at or beyond the usual limits of such assays
# experimental.context: source organism: Vaccinia virus WR
Recorded measurements of IC50, one per entry
Express the result in µM but write the number alone.

These recorded examples may help you get a feel for the data.
Reported IC50 ( YVILKDPRI ) = 0.778

Reported IC50 ( RIDMIDNLNI ) = 2.55

Further cases:
Reported IC50 ( VMNNLSELTA ) = 0.453

Reported IC50 ( VMTPSPFYTV ) = 0.026

* * *

# target.desc: HLA-A*02:02
# test.method.notes: IEDB peptide-MHC binding, purified MHC/competitive/radioactivity; bounds were set here for any values at or beyond the usual limits of such assays
# experimental.context: source organism: Vaccinia virus WR
Define the label as satisfied when IC50 is strictly less than 100 nM and as not satisfied in all remaining cases.

Say whether its IC50 is strictly beneath 100 nM. Entry: ILATLNTLI
satisfied

Say whether its IC50 is strictly beneath 100 nM. Entry: NIKISLNEI
not satisfied

Say whether its IC50 is strictly beneath 100 nM. Entry: TISGNIYSAL
satisfied

Say whether its IC50 is strictly beneath 100 nM. Entry: SIDHCSSFI
not satisfied

Say whether its IC50 is strictly beneath 100 nM. Entry: VLTSVDIETA
satisfied

Say whether its IC50 is strictly beneath 100 nM. Entry: IISLFYTFAI
not satisfied

Further cases:
Say whether its IC50 is strictly beneath 100 nM. Entry: FTEEQQQSFM
not satisfied

Say whether its IC50 is strictly beneath 100 nM. Entry: IVILFIMFM
not satisfied

Say whether its IC50 is strictly beneath 100 nM. Entry: FIMRNFLRSI
satisfied

Say whether its IC50 is strictly beneath 100 nM. Entry: IVAAVIIMAI
not satisfied

Say whether its IC50 is strictly beneath 100 nM. Entry: YAAEMVEYL
satisfied

Say whether its IC50 is strictly beneath 100 nM. Entry: MIIGEPIIVA
satisfied

Say whether its IC50 is strictly beneath 100 nM. Entry: SINNQLMYDI
not satisfied

Say whether its IC50 is strictly beneath 100 nM. Entry: SALMTLDDLA
not satisfied

* * *

# target.desc: HLA-A*02:03
# test.method.notes: IEDB peptide-MHC binding, purified MHC/competitive/radioactivity; bounds were set here for any values at or beyond the usual limits of such assays
# experimental.context: source organism: Vaccinia virus WR
parameter: IC50 (µM)
Express the result in µM but write the number alone.

These recorded examples may help you get a feel for the data.
Reported IC50 ( FTNSQIFNII ) = 0.457

Reported IC50 ( MAFDISVNA ) = 0.015

Reported IC50 ( FTILEYLYIM ) = 3.2

Further cases:
Reported IC50 ( ALKAYFTAKI ) = 0.077

Reported IC50 ( ELENKKVEYV ) = 3.65
